The measurements presented in this section are drawn from patent US11634425B2.

experimental_protocol: in vivo
Format: in vivo
details: in vivo; male Beagle dog, IV 0.5 mg/kg / PO 3 or 4 mg/kg study
readout_label: Cmax
A complete answer gives the number followed by the unit.

> print(dat)
                               query.smiles  readout.label      result
1  CCc1ccc(-c2nn3cccnc3c2C(=O)N[C@H]2N=C(c3ccccc3)c3cccc(F)c3NC2=O)cn1           Cmax  3210 ng/mL
2  O=C(N[C@H]1N=C(c2ccccc2)c2ccccc2NC1=O)c1c(-c2ccccc2F)nn2cccnc12           Cmax  1920 ng/mL
3  Cc1ccc(-c2nn3cccnc3c2C(=O)N[C@H]2N=C(c3ccccc3)c3cccc(F)c3NC2=O)cn1           Cmax  1200 ng/mL

Kindly review the next compound as well.
Field request: Cmax | item: "Cc1nc2ccc(Cl)nn2c1C(=O)N[C@H]1N=C(c2ccccc2)c2cccc(F)c2NC1=O"
3850 ng/mL
